Origin of the recorded values: paper PMC8113725

- system-tested: UniProt:F4ZE01
- measurement-protocol: biochemical
- conditions: Di iPGM Ave IC50 (M)
Bridge positions count the residues as written; N and C are the ends. Square brackets hold non-standard residues; d marks the D form. Peptide text beside a SMILES is read from it. Phe(4-F) = N[C@@H](Cc1ccc(F)cc1)C(=O)O; Nva = CCC[C@H](N)C(=O)O
Here, each record is paired with measured log10 IC50 data.
Values are log10 of IC50 in M.

{"compound": "COc1ccc(C[C@@H]2NC(=O)CSC[C@@H](C(=O)N[C@@H](Cc3ccc(O)cc3)C(=O)N[C@@H](CC(C)C)C(=O)N[C@@H](Cc3ccc(O)cc3)C(N)=O)NC(=O)[C@H](Cc3ccc(O)cc3)NC(=O)[C@H](CC(=O)O)NC(=O)CNC(=O)[C@@H]3CCCN3C(=O)[C@H](Cc3ccc(O)cc3)NC(=O)[C@H](CC(=O)O)NC2=O)cc1", "reported": -7.73}
{"compound": "CC(C)C[C@H](NC(=O)[C@H](Cc1ccc(O)cc1)NC(=O)[C@@H]1CSCC(=O)N[C@H](Cc2ccc(O)cc2)C(=O)N[C@@H](CC(=O)O)C(=O)N[C@@H](Cc2ccc(O)cc2)C(=O)N2CCC[C@H]2C(=O)NCC(=O)N[C@@H](CC(=O)O)C(=O)N[C@@H](Cc2ccc(O)cc2)C(=O)N1)C(=O)N[C@@H](Cc1ccc(F)cc1)C(N)=O", "reported": -7.15}
{"compound": "CC(C)C[C@H](NC(=O)[C@H](Cc1ccccc1)NC(=O)[C@@H]1CSCC(=O)N[C@H](Cc2ccc(O)cc2)C(=O)N[C@@H](CC(=O)O)C(=O)N[C@@H](Cc2ccc(O)cc2)C(=O)N2CCC[C@H]2C(=O)NCC(=O)N[C@@H](CC(=O)O)C(=O)N[C@@H](Cc2ccc(O)cc2)C(=O)N1)C(=O)N[C@@H](Cc1ccc(O)cc1)C(=O)NCC(=O)N[C@H](C(=O)N[C@@H](CS)C(N)=O)[C@@H](C)O [Ce-2 Y9F] ({CH2CO}-[dY]DYPGDYCFLYGTC-NH2; thioether N-8)", "reported": -8.57}
{"compound": "CCC[C@@H]1NC(=O)[C@@H](Cc2ccc(O)cc2)NC(=O)CSC[C@@H](C(=O)N[C@@H](Cc2ccc(O)cc2)C(=O)N[C@@H](CC(C)C)C(=O)N[C@@H](Cc2ccc(O)cc2)C(=O)NCC(=O)N[C@H](C(=O)N[C@@H](CS)C(N)=O)[C@@H](C)O)NC(=O)[C@H](Cc2ccc(O)cc2)NC(=O)[C@H](CC(=O)O)NC(=O)CNC(=O)[C@@H]2CCCN2C(=O)[C@H](Cc2ccc(O)cc2)NC1=O [Ce-2 D2Nva] ({CH2CO}-[dY][Nva]YPGDYCYLYGTC-NH2; thioether N-8)", "reported": -8.82}

# log10 IC50 measured on UniProt:F4ZE01 for item CC(C)[C@H](NC(=O)[C@H](Cc1ccc(O)cc1)NC(=O)[C@@H]1CSCC(=O)N[C@H](Cc2ccc(O)cc2)C(=O)N[C@@H](CC(=O)O)C(=O)N[C@@H](Cc2ccc(O)cc2)C(=O)N2CCC[C@H]2C(=O)NCC(=O)N[C@@H](CC(=O)O)C(=O)N[C@@H](Cc2ccc(O)cc2)C(=O)N1)C(=O)N[C@@H](Cc1ccc(O)cc1)C(N)=O [Ce-2d L10V] = -5.71

Item CC(C)C[C@H](NC(=O)[C@H](Cc1ccc(O)cc1)NC(=O)[C@@H]1CSCC(=O)N[C@H](Cc2ccc(O)cc2)C(=O)N[C@@H](CC(=O)O)C(=O)N[C@@H](Cc2ccc(F)cc2)C(=O)N2CCC[C@H]2C(=O)NCC(=O)N[C@@H](CC(=O)O)C(=O)N[C@@H](Cc2ccc(O)cc2)C(=O)N1)C(=O)N[C@@H](Cc1ccc(O)cc1)C(=O)NCC(=O)N[C@H](C(=O)N[C@@H](CS)C(N)=O)[C@@H](C)O [Ce-2 Y3(4F)F] ({CH2CO}-[dY]D[Phe(4-F)]PGDYCYLYGTC-NH2; thioether N-8) ; assay system UniProt:F4ZE01; log10 IC50 reported as -8.82

So the reported log10 IC50 for CC(C)C[C@H](NC(=O)[C@H](Cc1ccc(F)cc1)NC(=O)[C@@H]1CSCC(=O)N[C@H](Cc2ccc(O)cc2)C(=O)N[C@@H](CC(=O)O)C(=O)N[C@@H](Cc2ccc(O)cc2)C(=O)N2CCC[C@H]2C(=O)NCC(=O)N[C@@H](CC(=O)O)C(=O)N[C@@H](Cc2ccc(O)cc2)C(=O)N1)C(=O)N[C@@H](Cc1ccc(O)cc1)C(N)=O , on UniProt:F4ZE01, turned out to be -6.48

I looked up CC[C@H](C)[C@@H]1NC(=O)[C@H](Cc2ccc(O)cc2)NC(=O)[C@H](CC(=O)O)NC(=O)[C@@H](Cc2ccc(O)cc2)NC(=O)CSC[C@@H](C(=O)N[C@@H](Cc2ccc(O)cc2)C(=O)N[C@@H](CC(C)C)C(=O)N[C@@H](Cc2ccc(O)cc2)C(N)=O)NC(=O)[C@H](Cc2ccc(O)cc2)NC(=O)[C@H](CC(=O)O)NC(=O)CNC1=O and its log10 IC50 for UniProt:F4ZE01 was -6.66

// log10 IC50 (UniProt:F4ZE01) for COc1ccc(C[C@@H]2NC(=O)[C@H](CC(=O)O)NC(=O)CNC(=O)[C@@H]3CCCN3C(=O)[C@H](Cc3ccc(O)cc3)NC(=O)[C@H](CC(=O)O)NC(=O)[C@@H](Cc3ccc(O)cc3)NC(=O)CSC[C@@H](C(=O)N[C@@H](Cc3ccc(O)cc3)C(=O)N[C@@H](CC(C)C)C(=O)N[C@@H](Cc3ccc(O)cc3)C(N)=O)NC2=O)cc1 = -7.17

Summary: CC(C)C[C@@H]1NC(=O)[C@H](Cc2ccc(O)cc2)NC(=O)[C@H](CS)NC(=O)[C@H](Cc2ccc(O)cc2)NC(=O)[C@H](CC(=O)O)NC(=O)CNC(=O)[C@@H]2CCCN2C(=O)[C@H](Cc2ccc(O)cc2)NC(=O)[C@H](CC(=O)O)NC(=O)[C@@H](Cc2ccc(O)cc2)NC(=O)CSC[C@@H](C(N)=O)NC(=O)[C@H]([C@@H](C)O)NC(=O)CNC(=O)[C@H](Cc2ccc(O)cc2)NC1=O [Ce-2 [Y1-->C14]] , UniProt:F4ZE01, log10 IC50 = -5.19

---

Quick reference: Kd of the listed items.
- system-tested: E. coli iPGM (Escherichia coli, UniProt P37689)
- measurement-protocol: SPR binding kinetics and saturation binding, biotinylated iPGM on Biotin CAPture chip (Biacore S200)
- conditions: Supplementary Table 5, SPR, E.c. iPGM; unit inferred
Bridge positions count the residues as written; N and C are the ends. Square brackets hold non-standard residues; d marks the D form. Peptide text beside a SMILES is read from it. Nva = CCC[C@H](N)C(=O)O; Abu = CC[C@H](N)C(=O)O
Lab book: enter the figure in nM, no units written.

{"compound": "CC[C@@H]1NC(=O)[C@@H](Cc2ccc(O)cc2)NC(=O)CSC[C@@H](C(=O)N[C@@H](Cc2ccc(O)cc2)C(=O)N[C@@H](CC(C)C)C(=O)N[C@@H](Cc2ccc(O)cc2)C(=O)NCC(=O)N[C@H](C(=O)N[C@@H](CS)C(N)=O)[C@@H](C)O)NC(=O)[C@H](Cc2ccc(O)cc2)NC(=O)[C@H](CC(=O)O)NC(=O)CNC(=O)[C@@H]2CCCN2C(=O)[C@H](Cc2ccc(O)cc2)NC1=O [Ce-2 D2Abu] ({CH2CO}-[dY][Abu]YPGDYCYLYGTC-NH2; thioether N-8)", "system-tested": "E. coli iPGM (Escherichia coli, UniProt P37689)", "scale-unit": "nM", "reported": 25.4}
{"compound": "CC(C)C[C@H](NC(=O)[C@H](Cc1ccc(O)cc1)NC(=O)[C@@H]1CSCC(=O)N[C@H](Cc2ccc(O)cc2)C(=O)N[C@@H](CC(=O)O)C(=O)N[C@@H](Cc2ccc(O)cc2)C(=O)N2CCC[C@H]2C(=O)NCC(=O)N[C@@H](CC(=O)O)C(=O)N[C@@H](Cc2ccc(O)cc2)C(=O)N1)C(=O)N[C@@H](Cc1ccc(O)cc1)C(=O)NCC(=O)N[C@@H](CO)C(=O)N[C@@H](CS)C(N)=O", "system-tested": "E. coli iPGM (Escherichia coli, UniProt P37689)", "scale-unit": "nM", "reported": 1.31}
{"compound": "CC(C)C[C@H](NC(=O)[C@H](Cc1ccc(O)cc1)NC(=O)[C@@H]1CSCC(=O)N[C@H](Cc2ccc(O)cc2)C(=O)N[C@@H](CC(=O)O)C(=O)N[C@@H](Cc2ccc(O)cc2)C(=O)N2CCC[C@H]2C(=O)NCC(=O)N[C@@H](CC(=O)O)C(=O)N[C@@H](Cc2c[nH]cn2)C(=O)N1)C(=O)N[C@@H](Cc1ccc(O)cc1)C(=O)NCC(=O)N[C@H](C(=O)NO)[C@@H](C)O", "system-tested": "E. coli iPGM (Escherichia coli, UniProt P37689)", "scale-unit": "nM", "reported": 5140}

Now consider a different compound.
Form: compound = CCC[C@@H]1NC(=O)[C@@H](Cc2ccc(O)cc2)NC(=O)CSC[C@@H](C(=O)N[C@@H](Cc2ccc(O)cc2)C(=O)N[C@@H](CC(C)C)C(=O)N[C@@H](Cc2ccc(O)cc2)C(=O)NCC(=O)N[C@H](C(=O)N[C@@H](CS)C(N)=O)[C@@H](C)O)NC(=O)[C@H](Cc2ccc(O)cc2)NC(=O)[C@H](CC(=O)O)NC(=O)CNC(=O)[C@@H]2CCCN2C(=O)[C@H](Cc2ccc(O)cc2)NC1=O [Ce-2 D2Nva] ({CH2CO}-[dY][Nva]YPGDYCYLYGTC-NH2; thioether N-8) ; Kd = 47.1
